Parameter viability at 24 h, 200 μg/mL: see the listing below.
assay: In vitro cytotoxicity, MTT assay; type: cell-based; conditions: human, HepG2 cells; HepG2, 200 μg/mL, 24 h, control = 100; read-out: Cell Viability
State the value with its unit after it.

Reference set, count: 2
Cc1ccc2nc(N3CCCCC3)c(C=NNC(=S)Nc3ccc(F)cc3)cc2c1 ... 107%
Cc1cccc2cc(C=NNC(=S)NCCN3CCOCC3)c(N3CCCCC3)nc12 ... 95.3%

IN: Quick one: viability at 24 h, 200 μg/mL for `Cc1ccc(NC(=S)NN=Cc2cc3cc(C)ccc3nc2N2CCCCC2)c(C)c1` ?
OUT: 122%

IN: Quick one: viability at 24 h, 200 μg/mL for `Cc1ccc2nc(N3CCCCC3)c(C=NNC(=S)NCc3ccccc3)cc2c1` ?
OUT: 107%

IN: Quick one: viability at 24 h, 200 μg/mL for `Cc1ccc(NC(=S)NN=Cc2cc3cccc(C)c3nc2N2CCCCC2)c(C)c1` ?
OUT: 154%

IN: Quick one: viability at 24 h, 200 μg/mL for `Cc1cccc2cc(C=NNC(=S)Nc3ccccc3F)c(N3CCCCC3)nc12` ?
OUT: 126%

IN: Quick one: viability at 24 h, 200 μg/mL for `Cc1cccc2cc(C=NNC(=S)NCc3ccccc3)c(N3CCCCC3)nc12` ?
OUT: 107%

IN: Quick one: viability at 24 h, 200 μg/mL for `Cc1ccc2nc(N3CCCCC3)c(C=NNC(N)=S)cc2c1` ?
OUT: 92.8%

IN: Quick one: viability at 24 h, 200 μg/mL for `Cc1cccc2cc(C=NNC(=S)Nc3ccccc3Cl)c(N3CCCCC3)nc12` ?
OUT: 167%

###

tested on: HepG2 cells; test: In vitro cytotoxicity, MTT assay; type: cell-based; details: HepG2, MTT, 0–1000 µg/mL, 24 h
Quantity Measured: Status

Cc1ccc2nc(N3CCCCC3)c(C=NNC(=S)Nc3c(C)cccc3C)cc2c1 ... Proliferative
Cc1cccc2cc(C=NNC(=S)Nc3ccccc3Cl)c(N3CCCCC3)nc12 ... Proliferative
Cc1cccc2cc(C=NNC(=S)Nc3ccccc3F)c(N3CCCCC3)nc12 ... Proliferative
CCc1ccc(NC(=S)NN=Cc2cc3cccc(C)c3nc2N2CCCCC2)cc1 ... Proliferative
Cc1cccc2cc(C=NNC(N)=S)c(N3CCCCC3)nc12 ... Cytotoxic

IN: Quick one: Status for `Cc1ccc2nc(N3CCCCC3)c(C=NNC(=S)Nc3ccc(F)cc3)cc2c1` ?
OUT: Proliferative

IN: Quick one: Status for `Cc1ccc2nc(N3CCCCC3)c(C=NNC(=S)Nc3cccc(F)c3)cc2c1` ?
OUT: Proliferative

IN: Quick one: Status for `Cc1ccc2nc(N3CCCCC3)c(C=NNC(=S)Nc3ccccc3)cc2c1` ?
OUT: Proliferative

IN: Quick one: Status for `Cc1cccc(C)c1NC(=S)NN=Cc1cc2cccc(C)c2nc1N1CCCCC1` ?
OUT: Proliferative

IN: Quick one: Status for `Cc1ccc2nc(N3CCCCC3)c(C=NNC(=S)Nc3ccccc3Cl)cc2c1` ?
OUT: Cytotoxic

IN: Quick one: Status for `Cc1cccc2cc(C=NNC(=S)NCc3ccccc3)c(N3CCCCC3)nc12` ?
OUT: Proliferative

IN: Quick one: Status for `Cc1cccc2cc(C=NNC(=S)Nc3ccc(F)cc3)c(N3CCCCC3)nc12` ?
OUT: Non-cytotoxic

IN: Quick one: Status for `Cc1ccc2nc(N3CCCCC3)c(C=NNC(=S)Nc3ccc(Cl)cc3)cc2c1` ?
OUT: Proliferative
